target: mushroom tyrosinase (Agaricus bisporus); test: Enzymatic assay for tyrosinase inhibition; format: biochemical; conditions: read-out: Inhibition% ± SEM
Sequence (C7FF04 2-392): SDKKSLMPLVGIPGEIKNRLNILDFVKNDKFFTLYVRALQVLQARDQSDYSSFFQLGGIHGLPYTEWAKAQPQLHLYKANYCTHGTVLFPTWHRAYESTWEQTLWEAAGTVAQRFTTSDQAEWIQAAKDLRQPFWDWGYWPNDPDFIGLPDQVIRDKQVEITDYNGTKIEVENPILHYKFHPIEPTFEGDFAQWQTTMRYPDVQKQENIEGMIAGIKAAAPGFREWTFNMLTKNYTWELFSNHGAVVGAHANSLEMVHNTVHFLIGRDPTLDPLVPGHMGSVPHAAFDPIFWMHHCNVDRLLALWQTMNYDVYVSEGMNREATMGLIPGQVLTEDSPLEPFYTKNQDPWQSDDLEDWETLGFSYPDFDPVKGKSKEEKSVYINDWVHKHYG
reported_endpoint: inhibition at 50 µM (%)

# example entries with known answers
Cc1c(O)c(=O)ccn1-c1cccc(C(=O)NN=Cc2ccccc2[N+](=O)[O-])c1    46.1
Cc1c(O)c(=O)ccn1-c1cccc(C(=O)NN=Cc2ccc(C(C)C)cc2)c1    41.7
Cc1c(O)c(=O)ccn1-c1cccc(C(=O)NN=Cc2ccc(F)cc2)c1    43.1

(A) Cc1c(O)c(=O)ccn1-c1cccc(C(=O)NN=Cc2ccc([N+](=O)[O-])s2)c1
(B) Cc1c(O)c(=O)ccn1-c1cccc(C(=O)NN=Cc2cc([N+](=O)[O-])ccc2Cl)c1
Which of these two has the smaller recorded inhibition at 50 µM: A or B ? State the label of the item chosen. B

###

target: mushroom tyrosinase (Agaricus bisporus); assay: Enzymatic assay for tyrosinase inhibition; format: biochemical; conditions: read-out: Inhibition% ± SEM
reported_endpoint: inhibition at 50 µM (%)

# example entries with known answers
Cc1c(O)c(=O)ccn1-c1cccc(C(=O)NN=Cc2cc(Br)ccc2O)c1    49.6
COc1cccc(C=NNC(=O)c2cccc(-n3ccc(=O)c(O)c3C)c2)c1[N+](=O)[O-]    34.8
Cc1c(O)c(=O)ccn1-c1cccc(C(=O)NN=Cc2ccc(C#N)cc2)c1    30.8

(P) Cc1c(O)c(=O)ccn1-c1cccc(C(=O)NN=Cc2ccc(Cl)cc2Cl)c1
(Q) Cc1ccc(C=NNC(=O)c2cccc(-n3ccc(=O)c(O)c3C)c2)cc1
Between the two listed entries P and Q , which has its inhibition at 50 µM at the higher number? State the label of the item chosen. Q

The reported numbers originate from paper PMC10629491.
